# Test system: 519858-162-T-J1-PDC complex spheroid viability
# TEST METHOD NOTES: Anticancer human tumor 519858-162-T-J1-PDC patient-derived colon adenocarcinoma cell line growth inhibition [GQUAD]
# STATED CONDITIONS: curve of first compound; second compound 1 µM
pIC50: −log10 of the molar value.
I'd be grateful if you could share measured pIC50 for these entries.

For the compound Cc1cccc(N(C)C(=O)C2C(O)CCN2c2nc(C)cc(C(F)(F)F)c2C#N)c1 (stereo not drawn) + CN(C)c1ccc(Nc2c3ccc(NC(=O)CCN4CCCC4)cc3nc3cc(NC(=O)CCN4CCCC4)ccc23)cc1 , give its measured pIC50 value.
< 5.00

For the compound O=c1[nH]cc(F)c(=O)[nH]1 + Cc1[nH]c2ccc(F)cc2c1-c1nc2c3cccnc3c3ncccc3c2[nH]1 , give its measured pIC50 value.
< 5.00

For the compound CC1COCCN1c1cc(C2(O)CC3CCC(C2)O3)c2cnn(-c3ccn[nH]3)c2n1 (stereo not drawn) + Cc1cnc(CNC(=O)c2c(=O)c3ccc(N4CCCN(C)CC4)nc3n3c2sc2ccccc23)cn1 , give its measured pIC50 value.
6.63

---

# System: 519858-162-T-J1-PDC complex spheroid viability
# TEST METHOD NOTES: Anticancer human tumor 519858-162-T-J1-PDC cell line growth inhibition [GQUAD];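 also: spheroids exposed to compounds for 7 days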;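 as to viability, T/C: 100% = DMSO vehicle control viability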
# STATED CONDITIONS: second compound 0.1 µM; first compound 1 µM; stronger effect = lower value
REPORTED METRIC: viability, T/C (%)
Your answer should be a plain number; it is taken to be in %.

For the molecule O=C(c1cc(Cc2n[nH]c(=O)c3ccccc23)ccc1F)N1CCN(C(=O)C2CC2)CC1 + Cc1cnc(CNC(=O)c2c(=O)c3ccc(N4CCCN(C)CC4)nc3n3c2sc2ccccc23)cn1 , give its measured viability, T/C value.
58.8

For the molecule CC(C)n1c(=O)n(C)c2cnc3cc(F)c(-c4ccc(OCCCN5CCCCC5)nc4)cc3c21 + Cc1[nH]c2ccc(F)cc2c1-c1nc2c3cccnc3c3ncccc3c2[nH]1 , give its measured viability, T/C value.
91.3

For the molecule CC(=O)O[C@H]1C(=O)[C@@]2(C)[C@H]([C@H](OC(=O)c3ccccc3)[C@]3(O)C[C@H](OC(=O)[C@H](O)[C@@H](NC(=O)c4ccccc4)c4ccccc4)C(C)=C1C3(C)C)[C@]1(OC(C)=O)CO[C@@H]1C[C@@H]2O + CN(C)c1ccc(Nc2c3ccc(NC(=O)CCN4CCCC4)cc3nc3cc(NC(=O)CCN4CCCC4)ccc23)cc1 , give its measured viability, T/C value.
82

For the molecule COc1ncnc(C2CC2)c1-c1ncc2cnn(Cc3ccc(-c4nc(C(F)(F)F)cn4C(C)C)cc3)c2n1 + Cc1cnc(CNC(=O)c2c(=O)c3ccc(N4CCCN(C)CC4)nc3n3c2sc2ccccc23)cn1 , give its measured viability, T/C value.
77.9

For the molecule COc1cccc2c1C(=O)c1c(O)c3c(c(O)c1C2=O)CC(O)(C(=O)CO)CC3OC1CC(N)C(O)C(C)O1 (stereo not given) + CN(C)c1ccc(Nc2c3ccc(NC(=O)CCN4CCCC4)cc3nc3cc(NC(=O)CCN4CCCC4)ccc23)cc1 , give its measured viability, T/C value.
80.8

For the molecule Cc1cccc(N(C)C(=O)C2C(O)CCN2c2nc(C)cc(C(F)(F)F)c2C#N)c1 (stereo not given) + CN(C)c1ccc(Nc2c3ccc(NC(=O)CCN4CCCC4)cc3nc3cc(NC(=O)CCN4CCCC4)ccc23)cc1 , give its measured viability, T/C value.
77.2

For the molecule C=CCn1c(=O)c2cnc(Nc3ccc(N4CCN(C)CC4)cc3)nc2n1-c1cccc(C(C)(C)O)n1 + Cc1cnc(CNC(=O)c2c(=O)c3ccc(N4CCCN(C)CC4)nc3n3c2sc2ccccc23)cn1 , give its measured viability, T/C value.
92

For the molecule CC1COCCN1c1cc(C2(O)CC3CCC(C2)O3)c2cnn(-c3ccn[nH]3)c2n1 (stereo not given) + Cc1cnc(CNC(=O)c2c(=O)c3ccc(N4CCCN(C)CC4)nc3n3c2sc2ccccc23)cn1 , give its measured viability, T/C value.
44.8

For the molecule CC(C)n1c(=O)n(C)c2cnc3cc(F)c(-c4ccc(OCCCN5CCCCC5)nc4)cc3c21 + Cc1cnc(CNC(=O)c2c(=O)c3ccc(N4CCCN(C)CC4)nc3n3c2sc2ccccc23)cn1 , give its measured viability, T/C value.
60.6

For the molecule C=CC(=O)N1CCN(c2nc(=O)n(-c3c(C)ccnc3C(C)C)c3nc(-c4c(O)cccc4F)c(F)cc23)C(C)C1 (stereo not given) + CN(C)c1ccc(Nc2c3ccc(NC(=O)CCN4CCCC4)cc3nc3cc(NC(=O)CCN4CCCC4)ccc23)cc1 , give its measured viability, T/C value.
61.8

---

# Tested on: 519858-162-T-J1-PDC complex spheroid viability
# TEST METHOD NOTES: Anticancer human tumor 519858-162-T-J1-PDC cell line growth inhibition [GQUAD];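 also: spheroids exposed to compounds for 7 days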;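 as to viability, T/C: 100% = DMSO vehicle control viability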
# STATED CONDITIONS: second compound 1 µM; first compound 0.316 µM; stronger effect = lower value
I'd be grateful if you could share measured viability, T/C for these entries.

For the compound CC(C)n1c(=O)n(C)c2cnc3cc(F)c(-c4ccc(OCCCN5CCCCC5)nc4)cc3c21 + Cc1[nH]c2ccc(F)cc2c1-c1nc2c3cccnc3c3ncccc3c2[nH]1 , give its measured viability, T/C value.
101%

For the compound COc1ncnc(C2CC2)c1-c1ncc2cnn(Cc3ccc(-c4nc(C(F)(F)F)cn4C(C)C)cc3)c2n1 + CN(C)c1ccc(Nc2c3ccc(NC(=O)CCN4CCCC4)cc3nc3cc(NC(=O)CCN4CCCC4)ccc23)cc1 , give its measured viability, T/C value.
67.5%

For the compound C#Cc1c(F)ccc2cc(O)cc(-c3ncc4c(N5CC6CCC(C5)N6)nc(OCC56CCCN5CC(F)C6)nc4c3F)c12 (stereo not drawn) + CN(C)c1ccc(Nc2c3ccc(NC(=O)CCN4CCCC4)cc3nc3cc(NC(=O)CCN4CCCC4)ccc23)cc1 , give its measured viability, T/C value.
78.1%

For the compound Cc1cccc(N(C)C(=O)C2C(O)CCN2c2nc(C)cc(C(F)(F)F)c2C#N)c1 (stereo not drawn) + CN(C)c1ccc(Nc2c3ccc(NC(=O)CCN4CCCC4)cc3nc3cc(NC(=O)CCN4CCCC4)ccc23)cc1 , give its measured viability, T/C value.
109%

For the compound COc1cc(C2c3cc4c(cc3C(OC3OC5COC(C)OC5C(O)C3O)C3COC(=O)C23)OCO4)cc(OC)c1O (stereo not drawn) + CN(C)c1ccc(Nc2c3ccc(NC(=O)CCN4CCCC4)cc3nc3cc(NC(=O)CCN4CCCC4)ccc23)cc1 , give its measured viability, T/C value.
64.9%

For the compound CC(C)(O)C1CCC(Nc2ccc3ncc(-c4cccc(C(F)(F)F)c4)n3n2)CC1 (stereo not drawn) + Cc1[nH]c2ccc(F)cc2c1-c1nc2c3cccnc3c3ncccc3c2[nH]1 , give its measured viability, T/C value.
99.9%

For the compound Cc1cccc(N(C)C(=O)C2C(O)CCN2c2nc(C)cc(C(F)(F)F)c2C#N)c1 (stereo not drawn) + Cc1cnc(CNC(=O)c2c(=O)c3ccc(N4CCCN(C)CC4)nc3n3c2sc2ccccc23)cn1 , give its measured viability, T/C value.
52.4%

For the compound Nc1ccn(C2OC(CO)C(O)C2(F)F)c(=O)n1 (stereo not drawn) + Cc1[nH]c2ccc(F)cc2c1-c1nc2c3cccnc3c3ncccc3c2[nH]1 , give its measured viability, T/C value.
89.5%

---

# Tested on: 519858-162-T-J1-PDC complex spheroid viability
# TEST METHOD NOTES: Anticancer human tumor 519858-162-T-J1-PDC cell line growth inhibition [GQUAD];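 also: spheroids exposed to compounds for 7 days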;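 as to viability, T/C: 100% = DMSO vehicle control viability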
# STATED CONDITIONS: second compound 0.1 µM; first compound 0.1 µM; stronger effect = lower value
REPORTED METRIC: viability, T/C (%)
Your answer should be a plain number; it is taken to be in %.

For the compound CC(C)(O)C1CCC(Nc2ccc3ncc(-c4cccc(C(F)(F)F)c4)n3n2)CC1 (stereo not drawn) + Cc1cnc(CNC(=O)c2c(=O)c3ccc(N4CCCN(C)CC4)nc3n3c2sc2ccccc23)cn1 , give its measured viability, T/C value.
95.5

For the compound O=C(NO)c1cnc(N2CCN(S(=O)(=O)c3ccc4ccccc4c3)CC2)nc1 + Cc1[nH]c2ccc(F)cc2c1-c1nc2c3cccnc3c3ncccc3c2[nH]1 , give its measured viability, T/C value.
102

For the compound COc1cccc2c1C(=O)c1c(O)c3c(c(O)c1C2=O)CC(O)(C(=O)CO)CC3OC1CC(N)C(O)C(C)O1 (stereo not drawn) + Cc1[nH]c2ccc(F)cc2c1-c1nc2c3cccnc3c3ncccc3c2[nH]1 , give its measured viability, T/C value.
122

FYI, the data here is from PubChem BioAssay AID2060507.
